Reported growth values for a set of compounds
system: MDA-MB-468 breast; assay: NCI-60 one-dose screen, 48 h (100 = growth as untreated, 0 = no growth, -100 = all killed); conditions: 10 µM unless noted
This is part of a sample that, as a whole, favours compounds with a hit. Of some 83,000 tested, about 20% had one in any assay. Active and inactive are the calls of the source. How the source made its calls: active means growth percent below 10; inactive means the rest.
Reported metric: growth

[
  {
    "Compound": "NC(=O)CNc1ccc([As]=[As]c2ccc(NCC(N)=O)cc2)cc1 (stereo unspecified)",
    "Target entity": "MDA-MB-468 breast",
    "Reported metric": "growth",
    "Measured value": "-6.99% (active)"
  },
  {
    "Compound": "C[As](=O)(O)c1ccc(C(=O)O)cc1",
    "Target entity": "MDA-MB-468 breast",
    "Reported metric": "growth",
    "Measured value": "99.8% (inactive)"
  },
  {
    "Compound": "CC[CH2][Pb]([CH2]CC)([CH2]CC)[O]C(=O)C(F)(F)F",
    "Target entity": "MDA-MB-468 breast",
    "Reported metric": "growth",
    "Measured value": "-90.1% (active)"
  },
  {
    "Compound": "CNC(=O)Oc1ccccc1",
    "Target entity": "MDA-MB-468 breast",
    "Reported metric": "growth",
    "Measured value": "101% (inactive)"
  },
  {
    "Compound": "[N-]=[N+]=NC(C(=O)O)c1ccccc1 (stereo unspecified)",
    "Target entity": "MDA-MB-468 breast",
    "Reported metric": "growth",
    "Measured value": "126% (inactive)"
  },
  {
    "Compound": "COC12CC3(C)C(C4=CC(=O)OC4)CCC3(O)C3CCC4=CC(=O)CCC4(CO1)C32 (stereo unspecified)",
    "Target entity": "MDA-MB-468 breast",
    "Reported metric": "growth",
    "Measured value": "101% (inactive)"
  },
  {
    "Compound": "CC1=C[C@H]2O[C@@H]3C[C@@H](O)[C@](C)([C@@]2(C)CC1)[C@@]31CO1",
    "Target entity": "MDA-MB-468 breast",
    "Reported metric": "growth",
    "Measured value": "28.7% (inactive)"
  },
  {
    "Compound": "NC(=Nc1ccccc1)N[N+](=O)[O-]",
    "Target entity": "MDA-MB-468 breast",
    "Reported metric": "growth",
    "Measured value": "92.2% (inactive)"
  },
  {
    "Compound": "O=C1C(=O)c2ccccc2-c2ccccc21",
    "Target entity": "MDA-MB-468 breast",
    "Reported metric": "growth",
    "Measured value": "-85.6% (active)"
  },
  {
    "Compound": "C[C@]12CC[C@H]3[C@@H](C[C@@H]4SC(Nc5ccccc5)=N[C@@]45C/C(=N/O)CC[C@]35C)[C@@H]1CCC2=O",
    "Target entity": "MDA-MB-468 breast",
    "Reported metric": "growth",
    "Measured value": "59.9% (inactive)"
  },
  {
    "Compound": "C[Se]C(=O)c1ccccc1OC(C)=O",
    "Target entity": "MDA-MB-468 breast",
    "Reported metric": "growth",
    "Measured value": "45% (inactive)"
  }
]

----------
Listed below: growth values for each entry.
system: SF-539 CNS; test: NCI-60 one-dose screen, 48 h (100 = growth as untreated, 0 = no growth, -100 = all killed); conditions: 10 µM
This is part of a sample that, as a whole, favours compounds with a hit. Of some 83,000 tested, about 20% had one in any assay.
Reported metric: growth (%)

[
  {
    "Item smiles": "CC1=C(CCC=NNC(N)=O)C2=C(C)C3(CC3)[C@@](C)(O)C(=O)C2=C1",
    "Reported metric": "growth",
    "Measured value": -99.1
  },
  {
    "Item smiles": "O=C(/C=C/c1ccccc1Cl)c1nc2ccccc2n1Cc1ccc(F)cc1",
    "Reported metric": "growth",
    "Measured value": -94.4
  },
  {
    "Item smiles": "CC[C@]12C=CCN3CC[C@@]4(c5ccc(OC)cc5N(C)[C@H]4[C@@](O)(C(=O)OC)[C@@H]1OC(=O)CCCC[P+](c1ccc(OC)cc1)(c1ccc(OC)cc1)c1ccc(OC)cc1)[C@@H]32",
    "Reported metric": "growth",
    "Measured value": -97.4
  },
  {
    "Item smiles": "C[C@H]1[C@@H](CC(=O)N[C@@H](Cc2coc3ccccc23)B(O)O)O[C@@H]2OC3(C)CC[C@H]4[C@H](C)CC[C@@H]1[C@@]24OO3",
    "Reported metric": "growth",
    "Measured value": -96.4
  }
]

----------
test system: MDA-MB-468 breast; assay: NCI-60 one-dose screen, 48 h (100 = growth as untreated, 0 = no growth, -100 = all killed); conditions: 10 µM unless noted
Compounds without any hit were thinned out: in the full panel of roughly 83,000, 20% have a hit.
Examples of compounds with documented growth follow.
Reported metric: growth (%)

[
  {
    "Compound": "COc1ccc(C(C#N)C(C)=O)cc1 (configuration not stated)",
    "Measurement unit": "%",
    "Measured value": 106
  },
  {
    "Compound": "CCNc1nc(Cl)nc(NCC)n1",
    "Measurement unit": "%",
    "Measured value": 106
  },
  {
    "Compound": "C/C=C(\\C)C(=O)O[C@@H]1C(O)[C@H]2OC(COC(=O)CCC(=O)CCCCCC[C@H](CCCCC)O[C@@H]3OC(C)[C@H](OC(C)=O)C(O)[C@H]3O2)[C@H]1OC(=O)/C=C/c1ccccc1 (some centres not stated)",
    "Measurement unit": "%",
    "Measured value": -8.84
  },
  {
    "Compound": "O=C(CCCC1CCCCC1)OCC(Cl)(Cl)Cl",
    "Measurement unit": "%",
    "Measured value": 113
  },
  {
    "Compound": "C=CCN1C(=O)C(CC)(CCC(C)C)C(=O)NC1=S (configuration not stated)",
    "Measurement unit": "%",
    "Measured value": 102
  },
  {
    "Compound": "Cc1ccccc1-n1c(/C=C\\c2ccccn2)nc2ccccc2c1=O",
    "Measurement unit": "%",
    "Measured value": 3.39
  },
  {
    "Compound": "N#[N+]c1cnc([O-])[nH]c1=O",
    "Measurement unit": "%",
    "Measured value": 88.4
  }
]

----------
Tested on: 786-0 renal
Experiment: NCI-60 one-dose screen, 48 h (100 = growth as untreated, 0 = no growth, -100 = all killed)
Settings: 10 µM
Method: Cells are grown in 96 well plates and exposed to the test compound for 48 hours. Compounds are tested at a single concentration, which is 10^-5 M for most compounds. The reported endpoint is percent growth (GI% or GIPRCNT), where numbers from 0 - 100% represent growth inhibition, and numbers from -100% - 0 represent cell death. For example, a value of 40 represents 60% growth inhibition. A value of 0 means no net growth occurred over the course of the experiment. […]
This is part of a sample that, as a whole, favours compounds with a hit. Of some 83,000 tested, about 20% had one in any assay.
Quick rule for you: growth under -40% gets 1 (yes), anything else gets 0 (no).

[
  {
    "Item smiles": "O=C(/C=C/c1cccc(Br)c1)c1nc2ccccc2n1Cc1ccc(F)cc1",
    "Assigned category": "0 (no)"
  },
  {
    "Item smiles": "COc1ccc(OC)c(/C=C/C(=O)c2nc3ccccc3n2Cc2ccc(F)cc2)c1",
    "Assigned category": "1 (yes)"
  },
  {
    "Item smiles": "C[C@H]1[C@@H](Oc2ccc(-c3cn(-c4ccnc5cc(Cl)ccc45)nn3)cc2)O[C@@H]2OC3(C)CC[C@H]4[C@H](C)CC[C@@H]1[C@@]24OO3",
    "Assigned category": "0 (no)"
  },
  {
    "Item smiles": "O=C(/C=C/c1ccc(Cl)cc1Cl)c1nc2ccccc2n1Cc1ccc(Br)cc1",
    "Assigned category": "0 (no)"
  },
  {
    "Item smiles": "CC[C@]12C=CCN3CC[C@@]4(c5ccc(OC)cc5N(C)[C@H]4[C@@](O)(C(=O)OC)[C@@H]1OC(=O)CCC[P+](c1ccc(C)cc1)(c1ccc(C)cc1)c1ccc(C)cc1)[C@@H]32",
    "Assigned category": "1 (yes)"
  },
  {
    "Item smiles": "CC[C@]12C=CCN3CC[C@@]4(c5ccc(OC)cc5N(C)[C@H]4[C@@](O)(C(=O)OC)[C@@H]1OC(=O)CCCC[P+](c1ccc(OC)cc1)(c1ccc(OC)cc1)c1ccc(OC)cc1)[C@@H]32",
    "Assigned category": "1 (yes)"
  },
  {
    "Item smiles": "CC1=C(C=O)C2=C(C)C3(CC3)[C@@](C)(O)C(=O)C2=C1",
    "Assigned category": "0 (no)"
  },
  {
    "Item smiles": "CC1=C(CCC=O)C2=C(C)C3(CC3)[C@@](C)(O)C(=O)C2=C1",
    "Assigned category": "1 (yes)"
  }
]
